Taken from paper PMC2671563.

Target: mS100A9 and mRAGE/hFc (Mus musculus)
Construct: purchased R&D Systems (mRAGE/Fc); S100A9 made in house
Sequence (P31725 2-113 limits assumed): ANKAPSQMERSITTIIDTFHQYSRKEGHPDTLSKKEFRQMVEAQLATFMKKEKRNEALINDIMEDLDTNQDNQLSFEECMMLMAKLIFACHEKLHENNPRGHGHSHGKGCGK
Experiment: SPR: inhibition of mouse S100A9 binding to immobilised mouse RAGE
Conditions: read-out: S100A9 binding IC50, mS100A9 RAGE; Table S1
parameterMeasured: pIC50
# log scale: pIC50 equals minus log10 of the concentration in mol/L

CCN(C(=O)c1c(O)c2ccccc2n(C)c1=O)c1ccccc1 : 2.99
CCN(C(=O)c1c(O)c2c(SC)cccc2n(C)c1=O)c1ccccc1 : 3.35
CCN(C(=O)c1c(O)c2c(C(F)(F)F)cccc2n(C)c1=O)c1ccccc1 : 3.64
CCN(C(=O)c1c(O)c2c(Br)cccc2n(C)c1=O)c1ccccc1 : 3.72

Now turn to the next molecule.
Can you look up the measured pIC50 of CCN(C(=O)c1c(O)c2c(C)cccc2n(C)c1=O)c1ccccc1 for me?
3.11

----------
Target: human S100A9 binding to human RAGE (Homo sapiens, UniProt P06702)
Construct: purchased R&D Systems (RAGE/Fc); S100A9 made in house
Sequence (P06702 1-114): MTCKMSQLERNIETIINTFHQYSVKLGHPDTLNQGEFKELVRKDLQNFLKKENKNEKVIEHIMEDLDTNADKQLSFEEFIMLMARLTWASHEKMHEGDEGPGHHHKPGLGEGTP
Test: SPR: inhibition of human S100A9 binding to immobilised human RAGE
Conditions: read-out: S100A9 binding IC50, hS100A9 RAGE; Table S1
parameterMeasured: IC50 (µM)
Reply numerically in µM, unit not repeated.

CCN(C(=O)c1c(O)c2c(Br)cccc2n(C)c1=O)c1ccccc1 : 78.7
CCN(C(=O)c1c(O)c2c(SC)cccc2n(C)c1=O)c1ccccc1 : 135
CCN(C(=O)c1c(O)c2c(C)cccc2n(C)c1=O)c1ccccc1 : 168

Alright, here's another molecule for you.
Dear colleague, I am looking for the recorded IC50 of the following molecule: CCN(C(=O)c1c(O)c2ccccc2n(C)c1=O)c1ccccc1
436

----------
Biological target: mS100A9 and mLPS-Trap (Mus musculus, UniProt P31725)
Sequence (P31725 2-113 limits assumed): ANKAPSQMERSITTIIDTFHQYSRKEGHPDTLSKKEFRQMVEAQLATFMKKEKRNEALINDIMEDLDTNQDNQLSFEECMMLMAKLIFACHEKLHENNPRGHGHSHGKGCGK
Assay: SPR: inhibition of mouse S100A9 binding to immobilised mouse TLR4/MD2 fusion protein (mLPS-Trap)
Settings: Table S1
pIC50: −log10 of the molar value.
Is pIC50 at least 3? Then Condition met. If not, Condition not met.

Sample answers from the record:
CCN(C(=O)c1c(O)c2c(C(F)(F)F)cccc2n(C)c1=O)c1ccccc1 [ABR-215629] : Condition met
CCc1cccc2c1c(O)c(C(=O)N(CC)c1ccccc1)c(=O)n2C [ABR-215757] : Condition met
CCN(C(=O)c1c(O)c2ccccc2n(C)c1=O)c1ccccc1 [ABR-212662] : Condition not met
CCN(C(=O)c1c(O)c2c(SC)cccc2n(C)c1=O)c1ccccc1 [ABR-215628] : Condition met

Say whether CCN(C(=O)c1c(O)c2c(Br)cccc2n(C)c1=O)c1ccccc1 [ABR-215727] shows pIC50 of 3 or more.
Condition met

----------
Target: human S100A9 binding to human TLR4/MD2 (Homo sapiens)
Construct: purchased R&D Systems (TLR4/MD-2 complex); S100A9 made in house
Sequence (P06702 1-114): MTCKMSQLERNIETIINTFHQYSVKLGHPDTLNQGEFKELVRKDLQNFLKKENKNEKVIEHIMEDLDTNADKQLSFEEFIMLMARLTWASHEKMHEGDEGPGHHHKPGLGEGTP
Test: SPR: inhibition of human S100A9 binding to immobilised human TLR4/MD2
Conditions: Table S1; read-out: S100A9 binding IC50, hS100A9 TLR4
parameterMeasured: IC50 (µM)
The response must be a number in µM with no trailing unit.

CCN(C(=O)c1c(O)c2c(SC)cccc2n(C)c1=O)c1ccccc1 : 154
CCN(C(=O)c1c(O)c2c(C(F)(F)F)cccc2n(C)c1=O)c1ccccc1 : 79
CCc1cccc2c1c(O)c(C(=O)N(CC)c1ccccc1)c(=O)n2C : 59.7
CCN(C(=O)c1c(O)c2c(C)cccc2n(C)c1=O)c1ccccc1 : 217
CCN(C(=O)c1c(O)c2ccccc2n(C)c1=O)c1ccccc1 : 415

Query: IC50; subject: CCN(C(=O)c1c(O)c2c(Br)cccc2n(C)c1=O)c1ccccc1
87.9
